Cited source for all entries: the supplement of paper PMC10065799

Target: EPHB1 (UniProt P54762)
Sequence (P54762 whole entry, looked up): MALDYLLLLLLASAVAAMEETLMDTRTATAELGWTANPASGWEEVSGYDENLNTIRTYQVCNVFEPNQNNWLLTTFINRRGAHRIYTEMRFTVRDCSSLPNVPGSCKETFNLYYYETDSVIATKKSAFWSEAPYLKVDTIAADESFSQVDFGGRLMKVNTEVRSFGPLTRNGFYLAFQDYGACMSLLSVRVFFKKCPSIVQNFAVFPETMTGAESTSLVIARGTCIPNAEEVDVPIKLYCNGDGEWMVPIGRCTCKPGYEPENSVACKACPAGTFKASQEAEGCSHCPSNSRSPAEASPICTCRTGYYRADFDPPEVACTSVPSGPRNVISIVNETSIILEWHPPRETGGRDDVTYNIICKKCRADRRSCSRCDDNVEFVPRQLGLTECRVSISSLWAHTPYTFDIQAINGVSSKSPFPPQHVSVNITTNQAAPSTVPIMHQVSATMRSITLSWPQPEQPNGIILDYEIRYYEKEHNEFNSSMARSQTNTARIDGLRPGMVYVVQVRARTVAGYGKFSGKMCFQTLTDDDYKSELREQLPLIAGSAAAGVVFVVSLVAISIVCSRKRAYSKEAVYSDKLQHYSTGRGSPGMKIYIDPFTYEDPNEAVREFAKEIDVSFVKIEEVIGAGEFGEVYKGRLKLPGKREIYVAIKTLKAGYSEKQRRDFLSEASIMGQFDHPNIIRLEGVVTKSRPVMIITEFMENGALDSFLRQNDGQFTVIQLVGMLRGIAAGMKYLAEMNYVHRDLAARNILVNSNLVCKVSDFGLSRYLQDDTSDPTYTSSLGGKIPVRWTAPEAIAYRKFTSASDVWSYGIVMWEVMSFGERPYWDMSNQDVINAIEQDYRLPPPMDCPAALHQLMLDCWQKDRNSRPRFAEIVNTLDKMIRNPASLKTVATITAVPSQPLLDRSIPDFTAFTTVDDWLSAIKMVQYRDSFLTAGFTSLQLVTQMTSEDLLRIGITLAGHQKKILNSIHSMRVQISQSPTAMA
Assay: phosphorylation enrichment, bacterial display (enrichment ratio); higher = better substrate or ligand; peptides without Tyr show the background;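 note: 11-residue human phosphosite peptides and single-mutation variants displayed on the E. coli surface, counted by deep sequencing, each peptide's frequency after selection divided by its frequency in the unselected input library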;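 note: frequency after pTyr selection over input frequency; kinase dosed for 20-30% of maximal phosphorylation in three min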
If the reported phosphorylation enrichment equals or exceeds 0.4, assign T. If not, assign F.

In [3]: df
Out[3]:
                        chain_sequence  assigned_class
 0  FSNVLYRPRGP [TMIGD2_Y197_A202P_YF]               T
 1       SVTCTYYPALN [TP53_Y126_S127Y]               T
 2       SETDDYAEIIV [PTK2_Y397_D402V]               T
 3    VFFDLYGGEKF [PTPN11_Y66_D61V_YF]               T
 4       SVTCPYSPALN [TP53_Y126_T125P]               T
 5             KLGDVYVNDAF [PGK1_Y161]               T
 6            GRRGQYVMLSE [TTC7A_Y396]               T
 7       CATIHYNYMCN [TP53_Y234_T230A]               T
 8         VRFMAYTDEIF [F8_Y450_T454I]               T
 9         ASTDFYKRGDF [PDHA1_Y243_YF]               F
10  FMRGMYFRMTD [PLA2G6_Y541_K545T_YF]               T
11     FIPFRYPKEFQ [IDS_Y234_H229Y_YF]               F
12       RMSQRYRDVLQ [CYP1A2_Y72_G73R]               T
13              RRVLVYGGRGA [QDPR_Y16]               T
14       ASELGYQFQAI [UROD_Y133_V134Q]               F
15        KLQKKYGPIFS [CYP17A1_Y60_YF]               F
16      KRLDGYVLEGW [IGSF9_Y656_R661W]               T
17    KRAIGHYSATS [FAM120A_Y327_Y327H]               F
18        SDGHEYIFVDP [PDGFRB_Y579_YF]               T
19      IPGRFYETGSI [PAX2_Y73_L69P_YF]               T
20          HEEKVYLSRGD [CRACR2A_Y141]               T
21    NTGNFYDLFGG [PTPN11_Y63_D61N_YF]               T
22      ISHVAYLVLGK [TRRAP_Y892_R893L]               T
23       NPQKSCFIRLF [WAS_Y83_Y83C_YF]               T
24      LTERSYSFVTT [ACTA1_Y200_G199S]               T
